Target: ATM (Homo sapiens (Human), UniProt Q13315)
Sequence (Q13315 whole entry): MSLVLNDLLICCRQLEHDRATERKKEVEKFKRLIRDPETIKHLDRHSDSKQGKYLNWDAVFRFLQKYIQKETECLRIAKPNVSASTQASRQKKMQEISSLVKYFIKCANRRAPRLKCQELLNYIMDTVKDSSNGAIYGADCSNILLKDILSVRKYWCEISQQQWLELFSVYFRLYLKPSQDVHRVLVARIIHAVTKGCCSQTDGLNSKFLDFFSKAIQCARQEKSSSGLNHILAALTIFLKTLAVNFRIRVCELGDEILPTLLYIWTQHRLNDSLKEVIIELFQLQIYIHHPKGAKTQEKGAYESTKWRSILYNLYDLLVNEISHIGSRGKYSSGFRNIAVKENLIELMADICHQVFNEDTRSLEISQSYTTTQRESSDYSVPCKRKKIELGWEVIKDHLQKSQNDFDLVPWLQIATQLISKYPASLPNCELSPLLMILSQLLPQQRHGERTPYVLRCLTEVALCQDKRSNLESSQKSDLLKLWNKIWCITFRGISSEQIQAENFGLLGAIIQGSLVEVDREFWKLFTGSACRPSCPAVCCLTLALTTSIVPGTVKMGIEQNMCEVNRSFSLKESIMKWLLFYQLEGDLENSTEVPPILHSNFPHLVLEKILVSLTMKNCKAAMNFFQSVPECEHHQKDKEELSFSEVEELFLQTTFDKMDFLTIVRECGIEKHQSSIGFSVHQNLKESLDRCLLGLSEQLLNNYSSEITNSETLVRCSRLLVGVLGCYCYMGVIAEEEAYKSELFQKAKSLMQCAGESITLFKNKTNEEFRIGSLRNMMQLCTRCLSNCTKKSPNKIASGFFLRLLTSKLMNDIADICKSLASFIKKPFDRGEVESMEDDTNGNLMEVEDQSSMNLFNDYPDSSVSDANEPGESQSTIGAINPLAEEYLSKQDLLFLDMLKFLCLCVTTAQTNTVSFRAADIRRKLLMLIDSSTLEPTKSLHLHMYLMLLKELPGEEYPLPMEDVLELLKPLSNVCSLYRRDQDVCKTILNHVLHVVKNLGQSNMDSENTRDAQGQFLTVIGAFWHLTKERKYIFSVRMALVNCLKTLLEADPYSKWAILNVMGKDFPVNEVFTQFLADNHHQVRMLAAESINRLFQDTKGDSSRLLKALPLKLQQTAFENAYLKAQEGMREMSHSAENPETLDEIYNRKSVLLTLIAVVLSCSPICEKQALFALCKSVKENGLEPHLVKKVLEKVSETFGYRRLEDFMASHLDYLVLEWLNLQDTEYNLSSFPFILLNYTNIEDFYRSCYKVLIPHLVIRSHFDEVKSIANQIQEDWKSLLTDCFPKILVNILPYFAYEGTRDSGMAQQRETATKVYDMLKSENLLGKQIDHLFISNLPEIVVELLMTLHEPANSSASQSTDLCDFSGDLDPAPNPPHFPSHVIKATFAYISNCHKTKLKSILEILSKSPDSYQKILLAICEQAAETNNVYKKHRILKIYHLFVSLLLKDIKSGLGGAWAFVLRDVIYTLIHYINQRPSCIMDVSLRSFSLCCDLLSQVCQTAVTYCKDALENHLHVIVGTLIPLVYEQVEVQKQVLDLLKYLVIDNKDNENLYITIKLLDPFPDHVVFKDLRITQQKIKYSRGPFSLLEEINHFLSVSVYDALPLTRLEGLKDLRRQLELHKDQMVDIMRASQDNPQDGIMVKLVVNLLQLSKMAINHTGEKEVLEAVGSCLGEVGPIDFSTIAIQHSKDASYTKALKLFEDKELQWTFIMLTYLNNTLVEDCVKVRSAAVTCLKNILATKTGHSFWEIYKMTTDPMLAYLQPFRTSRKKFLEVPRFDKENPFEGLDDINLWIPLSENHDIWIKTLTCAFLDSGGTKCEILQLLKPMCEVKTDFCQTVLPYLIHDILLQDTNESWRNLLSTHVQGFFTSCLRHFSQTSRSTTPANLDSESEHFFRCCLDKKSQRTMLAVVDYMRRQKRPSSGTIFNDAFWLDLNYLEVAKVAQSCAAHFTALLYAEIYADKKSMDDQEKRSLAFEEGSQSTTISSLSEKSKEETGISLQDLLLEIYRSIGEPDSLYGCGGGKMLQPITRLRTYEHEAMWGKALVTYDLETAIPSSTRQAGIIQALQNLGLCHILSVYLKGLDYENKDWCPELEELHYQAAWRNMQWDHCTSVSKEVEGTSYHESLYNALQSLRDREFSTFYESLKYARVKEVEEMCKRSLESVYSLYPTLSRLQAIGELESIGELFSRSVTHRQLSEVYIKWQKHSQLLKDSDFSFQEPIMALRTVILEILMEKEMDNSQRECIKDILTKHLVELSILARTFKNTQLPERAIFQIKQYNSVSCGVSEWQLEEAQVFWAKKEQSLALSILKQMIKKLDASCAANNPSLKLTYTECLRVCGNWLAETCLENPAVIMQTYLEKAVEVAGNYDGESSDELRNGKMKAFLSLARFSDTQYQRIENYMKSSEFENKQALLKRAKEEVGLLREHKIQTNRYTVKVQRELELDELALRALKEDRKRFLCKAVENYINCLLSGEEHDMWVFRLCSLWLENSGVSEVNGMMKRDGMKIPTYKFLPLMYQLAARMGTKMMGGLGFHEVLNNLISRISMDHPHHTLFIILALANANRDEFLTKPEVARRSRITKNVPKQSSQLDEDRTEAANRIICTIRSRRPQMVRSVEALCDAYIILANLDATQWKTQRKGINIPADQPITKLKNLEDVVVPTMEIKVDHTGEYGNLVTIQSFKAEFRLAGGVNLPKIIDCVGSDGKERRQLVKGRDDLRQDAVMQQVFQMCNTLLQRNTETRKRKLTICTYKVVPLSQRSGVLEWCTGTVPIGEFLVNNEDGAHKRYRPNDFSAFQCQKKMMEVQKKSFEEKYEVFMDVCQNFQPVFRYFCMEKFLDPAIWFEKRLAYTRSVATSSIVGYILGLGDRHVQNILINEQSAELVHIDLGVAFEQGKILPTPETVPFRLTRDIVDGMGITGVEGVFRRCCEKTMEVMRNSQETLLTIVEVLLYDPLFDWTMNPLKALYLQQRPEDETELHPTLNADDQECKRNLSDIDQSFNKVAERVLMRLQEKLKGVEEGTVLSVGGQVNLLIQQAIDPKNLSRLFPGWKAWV
Assay: ATM in Cell Western Assay (pKAP1 in etoposide-treated MCF-7 cells)
Assay type: cell-based
Conditions: MCF-7 cells, etoposide 100 μM, 1 hr, pKAP1 readout
Structures can show the parent of a compound that is named as a salt.
property label: IC50

{"columns": ["molecule", "reported measurement"],
 "data": [
  ["CN1C(=O)C2(CCC2)c2c1cnc1ccc(-c3cnc(OCC4CNC4)c(NS(C)(=O)=O)c3)cc21 [Example 310, hydrochloride]", "> 100 nM"],
  ["CN(C)CCCOc1ncc(-c2ccc3ncc4c(c3c2)C2(CCC2)C(=O)N4C)cc1NS(=O)(=O)c1ccc(C(F)(F)F)cc1 [Example 186, hydrochloride]", "1 to 100 nM"],
  ["CCS(=O)(=O)Nc1cc(-c2cc3c4c(cnc3cc2F)N(C)C(=O)C42CCC2)cnc1N1CC(NC)C1", "1 to 100 nM"]
]}

---

Target: ATM (Homo sapiens (Human), UniProt Q13315)
Test: ATM in Cell Western Assay (pKAP1 in etoposide-treated MCF-7 cells)
Assay type: cell-based
Conditions: MCF-7 cells, etoposide 100 μM, 1 hr, pKAP1 readout
Counter-ions that a name gives are not always drawn.

{"columns": ["compound", "IC50"],
 "data": [
  ["CN1C(=O)C2(CCC2)c2c1cnc1ccc(-c3cnc(N4CCC(N(C)C)CC4)c(NS(=O)(=O)N(C)C)c3)cc21", "0.5 to 1 nM"],
  ["CN1C(=O)C2(CCC2)c2c1cnc1ccc(-c3cnc(OCCCN4CCCCC4)c(NS(=O)(=O)CF)c3)cc21", "1 to 100 nM"],
  ["CN(C)CCCOc1ncc(-c2ccc3ncc4c(c3c2)C2(CCC2)C(=O)N4C)cc1NS(=O)(=O)c1ccccc1F [Example 168, hydrochloride]", "0.5 to 1 nM"],
  ["CN(C)CCCOc1ncc(-c2ccc3ncc4c(c3c2)C2(CCC2)C(=O)N4C)cc1NS(=O)(=O)c1ccc(F)cc1 [Example 158, hydrochloride]", "0.5 to 1 nM"],
  ["CN1C(=O)C2(CCC2)c2c1cnc1ccc(-c3cnc(N4CCC(N5CCCCC5)CC4)c(NS(C)(=O)=O)c3)cc21", "0.5 to 1 nM"],
  ["CN1C(=O)C2(CC2)c2c1cnc1ccc(-c3ccc4nccnc4c3)cc21", "> 100 nM"],
  ["Cc1cc(S(=O)(=O)Nc2cc(-c3ccc4ncc5c(c4c3)C3(CCC3)C(=O)N5C)cnc2N2CCC(N(C)C)CC2)sn1", "1 to 100 nM"]
]}

---

Molecular target: DNA-PK (Homo sapiens (Human), UniProt P78527)
Assay: DNA-PK Enzyme-Linked Immunosorbent Assay (phosphorylation of GST-p53 (1-101) peptide)
Format: biochemical
Conditions: ELISA, ATP 20 μM
pIC50: −log10 of the molar value. Structures can show the parent of a compound that is named as a salt.
property label: pIC50

{"columns": ["molecule", "reported measurement"],
 "data": [
  ["CN1C(=O)C2(CCC2)c2c1cnc1ccc(-c3cnc(OCCCN4CCCC4)c(NS(=O)(=O)N(C)C)c3)cc21", "7.00 to 9.00"],
  ["CN1C(=O)C2(CCC2)c2c1cnc1ccc(-c3cnc(N4CCC(N5CCCC(F)(F)C5)CC4)c(NS(C)(=O)=O)c3)cc21", "9.00 to 9.30"],
  ["CN(C)CCCOc1ncc(-c2ccc3ncc4c(c3c2)C2(CC2)C(=O)N4C)cc1NS(=O)(=O)c1ccc(Cl)cc1 [Example 128, hydrochloride]", "> 9.30"],
  ["CN(C)CCCOc1ncc(-c2ccc3ncc4c(c3c2)C2(CC2)C(=O)N4C)cc1NS(=O)(=O)c1ccc(F)cc1", "> 9.30"],
  ["COc1ncc(-c2ccc3ncc4c(c3c2)C2(COC2)C(=O)N4C)cc1NS(=O)(=O)c1ccccc1", "> 9.30"],
  ["CN1C(=O)C2(CC2)c2c1cnc1ccc(-c3cnc(N)nc3)cc21", "9.00 to 9.30"],
  ["COc1ncc(-c2ccc3ncc4c(c3c2)C2(CC2)C(=O)N4CC#N)cc1NS(=O)(=O)c1ccccc1", "> 9.30"],
  ["COCCS(=O)(=O)Nc1cc(-c2ccc3ncc4c(c3c2)C2(CCC2)C(=O)N4C)cnc1OCCCN(C)C", "7.00 to 9.00"],
  ["CN1C(=O)C2(CCC2)c2c1cnc1ccc(-c3cnc(OCCCN4CCOCC4)c(NS(C)(=O)=O)c3)cc21", "7.00 to 9.00"],
  ["CN1C(=O)C2(CCC2)c2c1cnc1cc(F)c(-c3cnc(OCCCN4CCC(F)CC4)c(NS(C)(=O)=O)c3)cc21 [Example 297, hydrochloride]", "7.00 to 9.00"],
  ["CN1CCCC(COc2ncc(-c3ccc4ncc5c(c4c3)C3(CC3)C(=O)N5C)cc2NS(=O)(=O)C2CC2)C1 (centres unmarked)", "7.00 to 9.00"],
  ["CN(C)CCCOc1ncc(-c2ccc3ncc4c(c3c2)C2(CC2)C(=O)N4C)cc1NS(=O)(=O)N1CCCC1 [Example 89, hydrochloride]", "> 9.30"],
  ["Cc1ccc(S(=O)(=O)Nc2cc(-c3ccc4ncc5c(c4c3)C3(CCC3)C(=O)N5C)cnc2N2CCC(N3CCOCC3)CC2)cc1 [Example 167, hydrochloride]", "7.00 to 9.00"],
  ["CN1C(=O)C2(CCC2)c2c1cnc1ccc(-c3cnc(OCCCN4CCCCC4)c(NS(=O)(=O)c4ccccc4)c3)cc21 [Example 132, hydrochloride]", "7.00 to 9.00"],
  ["Cc1ccc(S(=O)(=O)Nc2cc(-c3ccc4ncc5c(c4c3)C3(CCC3)C(=O)N5C)cnc2N2CCC(N(C)C)CC2)cc1 [Example 178, 2,2,2-trifluoroacetate]", "> 9.30"],
  ["CN1C(=O)C2(CCC2)c2c1cnc1ccc(-c3cnc(N4CCC(N5CCCCC5)CC4)c(NS(=O)(=O)C4CC4)c3)cc21 [Example 207, hydrochloride]", "> 9.30"],
  ["CN1C(=O)C2(CCC2)c2c1cnc1ccc(-c3cnc(OCCCN4CCCCC4)c(NS(C)(=O)=O)c3)cc21", "> 9.30"]
]}

---

Biological target: UniProtKB Q13315
Experiment: ATM in Cell Western Assay (pKAP1 in etoposide-treated MCF-7 cells)
Type: cell-based
Settings: pKAP1 in etoposide-treated MCF-7 cells
Let's look at some compounds and their measured IC50.

{"columns": ["compound", "IC50"],
 "data": [
  ["CC(C)NCCOc1ncc(-c2cc3c4c(cnc3cc2F)N(C)C(=O)C42CCC2)cc1NS(=O)(=O)N1CCC1 [Example 370]", "1 to 100 nM"],
  ["CC(C)NCCOc1ncc(-c2cc3c(cc2F)ncc2c3[C@]3(C[C@@H](O)C3)C(=O)N2C)cc1NS(C)(=O)=O [Example 382]", "1 to 100 nM"],
  ["CC(C)NCCOc1ncc(-c2cc3c(cc2F)ncc2c3[C@]3(C[C@H](COc4ccccc4)C3)C(=O)N2C)cc1NS(C)(=O)=O [Example 409]", "1 to 100 nM"],
  ["CC(C)NCCOc1ncc(-c2cc3c4c(cnc3cc2F)N(C)C(=O)C42CN(c3ccccc3F)C2)cc1NS(C)(=O)=O [Example 540]", "1 to 100 nM"],
  ["CC(C)NCCOc1ncc(-c2cc3c(cc2F)ncc2c3[C@]3(C[C@@H](Cc4ccccc4)C3)C(=O)N2C)cc1NS(C)(=O)=O [Example 450]", "1 to 100 nM"],
  ["CC(C)NCCOc1ncc(-c2cc3c4c(cnc3cn2)N(C)C(=O)C42CCC2)cc1NS(C)(=O)=O [Example 562]", "> 100 nM"]
]}

---

Molecular target: ATM (Homo sapiens (Human))
Experiment: ATM in Cell Western Assay (pKAP1 in etoposide-treated MCF-7 cells)
Assay type: cell-based
Settings: pKAP1 in etoposide-treated MCF-7 cells

{"columns": ["smiles string", "assayed target", "IC50"],
 "data": [
  ["COc1cccc([C@H]2C[C@@]3(C2)C(=O)N(C)c2cnc4cc(F)c(-c5cnc(OCCNC(C)C)c(NS(C)(=O)=O)c5)cc4c23)n1", "ATM (Homo sapiens (Human))", "1 to 100 nM"],
  ["CC(C)NCCOc1ncc(-c2cc3c(cc2F)ncc2c3[C@]3(C[C@H](Oc4ccccc4)C3)C(=O)N2C)cc1NS(C)(=O)=O", "ATM (Homo sapiens (Human))", "0.5 to 1 nM"],
  ["CC(C)NCCOc1ncc(-c2cc3c4c(cnc3cc2F)N(C)C(=O)C42CN(CC(F)F)C2)cc1NS(C)(=O)=O", "ATM (Homo sapiens (Human))", "1 to 100 nM"],
  ["CC(C)NCCOc1ncc(-c2cc3c4c(nnc3cc2F)N(C)C(=O)C42CCC2)cc1NS(C)(=O)=O", "ATM (Homo sapiens (Human))", "> 100 nM"]
]}
